- ASSAY REMARKS: Plasma PK of brensocatib, BID vs QD oral dosing, C57BL/6 mice
- Format: in vivo
- SETTINGS: both sexes, mouse, C57BL/6 mice, oral QD, 0.75 mg/kg/day, first 24 h, read-out: AUC0–24h
ASSAY READOUT: AUC(0-t) (µg·h/mL)
Report only the number, with the unit µg·h/mL understood.

Input line: Given the entry Cn1c(=O)oc2ccc(-c3ccc(C[C@@H](C#N)NC(=O)[C@@H]4CNCCCO4)cc3)cc21 , report its measured AUC(0-t).
Output line: 0.735

---

- ASSAY REMARKS: Plasma PK of brensocatib, BID vs QD oral dosing, Sprague Dawley rats
- Assay type: in vivo
- SETTINGS: both sexes, Sprague-Dawley, rat, SD rats, oral QD, 30 mg/kg/day, first 24 h, read-out: AUC0–24h
ASSAY READOUT: AUC(0-t) (µg·h/mL)
# value in µg·h/mL; strip the unit string

Input line: Which AUC(0-t) value belongs to Cn1c(=O)oc2ccc(-c3ccc(C[C@@H](C#N)NC(=O)[C@@H]4CNCCCO4)cc3)cc21 [brensocatib] ?
Output line: 104
